Assay: Cmax in mouse at 10 mg/kg, po
Assay type: ADME, organism-based
Design: dose 10 mg/kg, route oral
Conditions: in vivo
value.kind: Cmax (ng/mL)
Field: numeric (ng/mL). Do not append units.

Need Cmax of CC(C)[C@@H](NC(=O)c1cc(C(F)(F)F)ccc1F)C(=O)N1CCC2(CC1)C(=O)N(C)C(=O)N2c1ccc2[nH]ncc2c1 , thanks.
744

----------
Test: Clearance in mouse at 1 mg/kg, iv
Assay type: ADME, organism-based
Conditions: in vivo
value.kind: clearance (mL/min/kg)
# output: bare number, implied unit mL/min/kg

Request the reported clearance associated with CC(C)[C@@H](NC(=O)c1cc(C(F)(F)F)ccc1F)C(=O)N1CCC2(CC1)C(=O)N(C)C(=O)N2c1ccc2[nH]ncc2c1
54

Cited source: ChEMBL document CHEMBL4610127
